# study system: p99 AmpC β-lactamase (Class C) (Enterobacter cloacae, UniProt P05364)
# Sequence (P05364 21-381): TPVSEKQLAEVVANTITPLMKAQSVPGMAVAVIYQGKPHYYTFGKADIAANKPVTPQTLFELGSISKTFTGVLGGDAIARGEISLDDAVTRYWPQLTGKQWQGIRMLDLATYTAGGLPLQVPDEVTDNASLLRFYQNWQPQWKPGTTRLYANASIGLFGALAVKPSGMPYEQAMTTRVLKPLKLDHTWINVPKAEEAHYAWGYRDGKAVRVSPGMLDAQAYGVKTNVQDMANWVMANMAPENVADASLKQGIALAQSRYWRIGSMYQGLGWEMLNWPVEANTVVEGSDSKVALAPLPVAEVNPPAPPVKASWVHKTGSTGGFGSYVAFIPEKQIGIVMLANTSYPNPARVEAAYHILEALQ
# measurement notes: β-Lactamase inhibition, p99 AmpC
# Procedure: For SHV-5, Kpc-2, p99AmpC and OXA-1 β-lactamases, E. coli BL21(DE3) bacterial cells carrying expression plasmids (expressed as native untagged proteins) for the individual β-lactamases were grown in 1 L of Superbroth (Teknova Inc. Hollister, Calif.) supplemented with 100 μg/ml kanamycin selection and 1×5052 (0.5% glycerol, 0.05% glucose and 0.2% α-lactose) at 35° C. for 18-20 hours. […]
quantity name: IC50

Solved entries:
N[C@H]1CCCN(CC(=O)N[C@H]2Cc3cccc(C(=O)O)c3OB2O)C1 [Example 11]    < 100 nM
N#CCN1CCC(CC(=O)N[C@H]2Cc3cccc(C(=O)O)c3OB2O)CC1 [Example 35]    100 to 1000 nM
N[C@@H]1CCCN(CC(=O)N[C@H]2Cc3cccc(C(=O)O)c3OB2O)C1 [Example 10]    < 100 nM
O=C(O)CN1CCN(CC(=O)N[C@H]2Cc3cccc(C(=O)O)c3OB2O)CC1 [Example 25]    < 100 nM
O=C(CN[C@@H]1CCNC1)N[C@H]1Cc2cccc(C(=O)O)c2OB1O [Example 9]    < 100 nM

Task: Tell me the measured IC50 of NC1CCN(CC(=O)N[C@H]2Cc3cccc(C(=O)O)c3OB2O)CC1 [Example 1] , please.
Output: < 100 nM

Task: IC50 for NCCCN1CCC(CC(=O)N[C@H]2Cc3cccc(C(=O)O)c3OB2O)CC1 [Example 42] ?
Output: < 100 nM

Task: IC50 for O=C(O)c1cccc2c1OB(O)[C@@H](NC(=O)C1CNC1)C2 [Example 46] ?
Output: < 100 nM

Task: Entry NCC1CCN(CC(=O)N[C@H]2Cc3cccc(C(=O)O)c3OB2O)CC1 [Example 5] has what IC50?
Output: < 100 nM

Task: Query (molecule): NCCN1CCC(CC(=O)N[C@H]2Cc3cccc(C(=O)O)c3OB2O)CC1 [Example 41] ; field requested: IC50
Output: < 100 nM

---

# study system: SHV-5 β-lactamase (Class A ESBL) (Klebsiella pneumoniae, UniProt P0A3M1)
# Sequence (P0A3M1 22-286): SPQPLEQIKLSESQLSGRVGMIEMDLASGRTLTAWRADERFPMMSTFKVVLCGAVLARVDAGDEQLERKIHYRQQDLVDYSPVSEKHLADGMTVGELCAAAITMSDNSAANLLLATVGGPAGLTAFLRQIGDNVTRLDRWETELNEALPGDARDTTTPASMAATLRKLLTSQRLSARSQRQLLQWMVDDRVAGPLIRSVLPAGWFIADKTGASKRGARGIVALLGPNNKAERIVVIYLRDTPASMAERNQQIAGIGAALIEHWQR
# measurement notes: β-Lactamase inhibition, SHV-5
We begin with a simple list: items and their reported IC50.

// worked examples, IC50 included
NCCN1CCN(CC(=O)N[C@H]2Cc3cccc(C(=O)O)c3OB2O)C(=O)C1    < 100 nM
CN(C)CCN1CCN(CC(=O)N[C@H]2Cc3cccc(C(=O)O)c3OB2O)CC1    < 100 nM

Let's switch to this molecule now.
Task: Report IC50 for `O=C(O)c1cccc2c1OB(O)[C@@H](NC(=O)C1CNC1)C2` please.
Output: < 100 nM

---

# study system: SHV-5 β-lactamase (Class A ESBL) (Klebsiella pneumoniae)
# measurement notes: β-Lactamase inhibition, SHV-5
pIC50: −log10 of the molar value.
pIC50 overview

Answered cases to consult:
O=C(CC1CCNCC1)N[C@H]1Cc2cccc(C(=O)O)c2OB1O [Example 32]    4.00 to 5.00
N[C@H]1CCCN(CC(=O)N[C@H]2Cc3cccc(C(=O)O)c3OB2O)C1 [Example 11]    > 7.00
O=C(CN1CCC(O)CC1)N[C@H]1Cc2cccc(C(=O)O)c2OB1O [Example 12]    > 7.00

Task: Would you mind telling me what pIC50 value was observed for O=C(CN1CCN(CCO)CC1)N[C@H]1Cc2cccc(C(=O)O)c2OB1O [Example 18] ?
Output: 6.00 to 7.00

Task: # query: pIC50 of entry NC1CCN(CCC(=O)N[C@H]2Cc3cccc(C(=O)O)c3OB2O)CC1 [Example 22]
Output: 6.00 to 7.00

Task: Which pIC50 is listed for CN1CCC(CC(=O)N[C@H]2Cc3cccc(C(=O)O)c3OB2O)CC1 [Example 45] ?
Output: > 7.00

Task: Please report the recorded pIC50 for NCCN1CCC(CCC(=O)N[C@H]2Cc3cccc(C(=O)O)c3OB2O)CC1 [Example 31] .
Output: 6.00 to 7.00
